- Tested on: NMC-G1;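 note: growth inhibition of the NMC-G1 cell line, measured with a cell viability read-out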
- PROCEDURE TEXT: cells
- Type: functional, cell-based, Homo sapiens
- CONDITION LABEL: Homo sapiens, NMC-G1
- Description: SANGER: Inhibition of human NMC-G1 cell growth in a cell viability assay.
Hi there, I'd appreciate the recorded pIC50 for every entry that follows.
Numbers only, as −log10 of the molar value.

Consider the following illustrative entries.
C/C(=C\c1csc(C)n1)[C@@H]1C[C@@H]2O[C@]2(C)CCC[C@H](C)[C@H](O)[C@@H](C)C(=O)C(C)(C)[C@@H](O)CC(=O)O1	8.76
COc1cc(N2CCC(N3CCN(C)CC3)CC2)ccc1Nc1ncc(Cl)c(Nc2ccccc2S(=O)(=O)C(C)C)n1	6.08

Dear reader, for each entry below, please note its pIC50.
1. CN(NC(=O)CC(=O)NN(C)C(=S)c1ccccc1)C(=S)c1ccccc1
2. CCCCCCCCCCCC1=C(O)C(=O)C=C(O)C1=O

(A)
1. 7.69
2. 5.16
